melting point listing for selected molecules.

COC(=O)CCCCCCCCCc1c(O)c(Cl)c(C)c(C=O)c1O	87 to 88 °C

Give the measured melting point of CCC(=O)OCCCCCCC/C=C/c1c(O)c(Cl)c(C)c(C=O)c1O . 72 to 73 °C

Give the measured melting point of CC(=O)c1c(C)c(Cl)c(O)c(C/C=C(\C)CCC=C(C)C)c1O . 57 to 58 °C

Give the measured melting point of CC(=O)OCCCCCCCCc1c(O)c(Cl)c(C)c(C=O)c1O . 68 °C

Give the measured melting point of C/C(C=O)=C\CC/C(C)=C/Cc1c(O)c(Cl)c(C)c(C=O)c1O . 111.2 to 111.4 °C

Give the measured melting point of COCOC/C(C)=C/CC/C(C)=C/Cc1c(O)c(Cl)c(C)c(C=O)c1O . 49 to 50 °C

Give the measured melting point of Cc1c(Cl)c(O)c(CCCCCCCCCC(=O)OC(C)C)c(O)c1C=O . 49 °C

Give the measured melting point of CC(C)=CCC/C(C)=C/Cc1c(O)c(Cl)cc(C=O)c1O . 94 to 95 °C

Give the measured melting point of Cc1c(Cl)c(O)c(CCCCCCC(C)C)c(O)c1C=O . 93 to 94 °C

====

recorded.metric: melting point (°C)
Numbers only; they are read as °C.

CC(C)=CCC/C(C)=C/Cc1c(O)ccc(C=O)c1O	85

Continue with the compound presented below.
Give the measured melting point of Cc1c(Cl)c(O)c(CCCCCCCCCOC(=O)C(C)(C)C)c(O)c1C=O . 62

====

Target: Cryptosporidium cyanide insensitive oxidase (AOX), recombinant protein (cCpAOX) (Cryptosporidium parvum)
Test: CpAOX enzyme inhibition
Assay type: biochemical
IC50 listing for selected compounds.
Numbers only; they are read as nM.

Consider the following illustrative entries.
Cc1c(Cl)c(O)c(CCCCCCCCCC(=O)OCC2COC(C)(C)O2)c(O)c1C=O (stereo not shown)	2.3
COC(=O)CCCCCCCCCc1c(O)c(Cl)c(C)c(C=O)c1O	1.5
CC(=O)OC(C)/C(C)=C/CC/C(C)=C/Cc1c(O)c(Cl)c(C)c(C=O)c1O (stereo not shown)	1.5

Continue with the compound presented below.
Give the measured IC50 of CC(/C=C/C(=O)C(C)(C)C)=C\CC/C(C)=C/Cc1c(O)c(Cl)c(C)c(C=O)c1O . 2.2

====

Target: Cryptosporidium cyanide insensitive oxidase (AOX), recombinant protein (cCpAOX) (Cryptosporidium parvum, UniProt Q761U6)
Sequence (Q761U6 entry or part of it): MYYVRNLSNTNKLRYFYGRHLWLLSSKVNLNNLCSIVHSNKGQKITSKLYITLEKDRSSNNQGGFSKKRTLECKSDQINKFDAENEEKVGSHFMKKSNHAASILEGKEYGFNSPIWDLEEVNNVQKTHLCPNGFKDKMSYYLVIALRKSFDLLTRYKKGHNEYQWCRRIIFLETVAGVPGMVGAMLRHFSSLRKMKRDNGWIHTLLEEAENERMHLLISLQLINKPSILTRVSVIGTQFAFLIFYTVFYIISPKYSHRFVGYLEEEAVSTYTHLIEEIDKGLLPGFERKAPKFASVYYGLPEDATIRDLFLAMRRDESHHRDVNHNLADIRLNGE
Experiment: CpAOX enzyme inhibition
Assay type: biochemical
recorded.metric: pIC50
As a rule, pIC50 stands for the negative log10 of the concentration, concentration in M.

Consider the following illustrative entries.
COC(CC(=O)C(C)(C)C)/C(C)=C/CC/C(C)=C/Cc1c(O)c(Cl)c(C)c(C=O)c1O (stereo not shown)	8.80
COC(=O)/C(C)=C/CC/C(C)=C/Cc1c(O)c(Cl)c(C)c(C=O)c1O	8.92
CCCCCC#CCc1c(O)c(Cl)c(C)c(C=O)c1O	8.72

Give the measured pIC50 of CCC(=O)OCCCCCCCCCc1c(O)c(Cl)c(C)c(C=O)c1O . 8.68

Give the measured pIC50 of CC(=O)/C(C)=C/CC/C(C)=C/Cc1c(O)c(Cl)c(C)c(C=O)c1O . 8.68

Give the measured pIC50 of CC(C)=CCC/C=C/Cc1c(O)c(Cl)c(C)c(C=O)c1O . 8.92

Give the measured pIC50 of Cc1c(Cl)c(O)c(CCCCCCC(C)C)c(O)c1C=O . 8.68

Give the measured pIC50 of CC(=O)OCCCCCCCCc1c(O)c(Cl)c(C)c(C=O)c1O . 8.57

====

Biological target: recombinant Trypanosome AOX (TAO) enzyme (Trypanosoma brucei brucei, UniProt Q26710)
Sequence (Q26710 whole entry): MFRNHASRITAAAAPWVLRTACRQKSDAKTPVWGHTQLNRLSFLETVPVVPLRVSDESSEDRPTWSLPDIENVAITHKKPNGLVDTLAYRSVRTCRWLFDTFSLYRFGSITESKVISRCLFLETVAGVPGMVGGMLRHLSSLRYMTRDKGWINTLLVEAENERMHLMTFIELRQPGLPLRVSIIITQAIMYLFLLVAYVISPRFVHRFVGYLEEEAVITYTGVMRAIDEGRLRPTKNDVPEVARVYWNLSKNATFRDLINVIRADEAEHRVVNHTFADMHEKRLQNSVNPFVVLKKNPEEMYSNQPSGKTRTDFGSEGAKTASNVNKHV
Assay: TAO enzyme inhibition (quinol oxidase activity, ubiquinol-1 substrate)
Details: TAO-expressing E. coli membrane fraction, 25° C., ubiquinol-1, absorbance at 278 nm
Protocol: Escherichia coli membrane fractions that express TAO by a plasmid harboring TAO cDNA cloned from T. brucei brucei (Fukai, Comparative Biochemistry & Physiology, 124, 141-148, 1999) were used as a recombinant Trypanosome AOX (TAO) enzyme. […] Ubiquinol-1 as a substrate was then added to the mixture to initiated the reaction, and change in absorbance at 278 nm was monitored (Shimadzu UV-3000, molar absorption coefficient ε=15 cm^−1 mM^−1).
recorded.metric: pIC50
As a rule, pIC50 stands for the negative log10 of the concentration, concentration in M.

Give the measured pIC50 of C/C(=C\Cc1c(O)c(Cl)c(C)c(C=O)c1O)CC/C=C(\C)C1OC(C)C(C)O1 (centres unmarked) [Compound 509-11] . 9.52

Give the measured pIC50 of CCC(=O)OCCCCCCC/C=C/c1c(O)c(Cl)c(C)c(C=O)c1O [Compound 200-13-OCOEt] . 9.52

Give the measured pIC50 of Cc1c(Cl)c(O)c(/C=C/CCCCCCCOC(=O)C(C)(C)C)c(O)c1C=O [Compound 200-13-OPiv] . 9.49

Give the measured pIC50 of COC(=O)/C(C)=C/CC/C(C)=C/Cc1c(O)c(Cl)c(C)c(C=O)c1O [Compound 275-10-COOMe] . 9.42

Give the measured pIC50 of Cc1c(Cl)c(O)c(CCCCCCCCCOC(=O)C(C)C)c(O)c1C=O [Compound 215-13-OCOiPr] . 9.52

Give the measured pIC50 of Cc1c(Cl)c(O)c(CCCCCCC(C)C)c(O)c1C=O [Compound 279-8] . 9.66

Give the measured pIC50 of CCCCCC#CCc1c(O)c(Cl)c(C)c(C=O)c1O [Compound 284-8] . 9.52

Give the measured pIC50 of C/C(=C\Cc1c(O)c(Cl)c(C)c(CO)c1O)CC/C=C(\C)COC(=O)C(C)(C)C [Compound 503-OPiv] . 9.52

====

System: T. b. rhodesiense IL1501
Experiment: Antiprotozoal effect, MIC measurement in HMI-9 culture
Assay type: cell-based
Settings: Trypanosoma brucei, RHODESIENSE, 24 h; Glycerol (−); bloodstream forms, 18 + 6 hours culture
Protocol: T. b. rhodesiense IL1501, the human infectious protozoan that causes acute symptoms, was used as a Trypanosomatid protozoan. The bloodstream forms of protozoan can be cultured in a HMI-9 culture medium (Hirumi, 1989). The protozoan was always cultured at a temperature of 37° C. in the presence of 5% CO2. In a microtiter plate (96-well, FALCON 3072), HMI-9 culture medium and HMI-9 culture medium plus glycerol added to make a final concentration of 8.33 mM are separately prepared. […]
recorded.metric: MIC

Consider the following illustrative entries.
Cc1c(Cl)c(O)c(CCCCCCC(C)C)c(O)c1C=O [Compound 279-8]	12 nM
Cc1c(Cl)c(O)c(CCCCCCCCCOC(=O)C(C)(C)C)c(O)c1C=O [Compound 215-13-OPiv]	280 nM
Cc1c(Cl)c(O)c(CCCCCCCCCC(=O)O)c(O)c1C=O [Compound 215-11-COOH]	4000 nM
CC(=O)c1c(C)c(Cl)c(O)c(C/C=C(\C)CCC=C(C)C)c1O [Compound 173]	1.4 nM
CC(=O)c1c(C)c(Cl)c(O)c(C/C=C(\C)CC/C=C(\C)CCC=C(C)C)c1O [Compound 282-12]	19 nM

Find the measured MIC: item Cc1c(Cl)c(O)c(CCCCCCCCCC(=O)OCC2COC(C)(C)O2)c(O)c1C=O (centres unmarked) [Compound 502-16-G] , target or system T. b. rhodesiense IL1501. 12 nM

====

Test system: T. b. rhodesiense IL1501
Test: Antiprotozoal effect, MIC measurement in HMI-9 culture
Type: cell-based
Conditions: Trypanosoma brucei, RHODESIENSE, 24 h; Glycerol (−); bloodstream forms, 18 + 6 hours culture
log10 MIC listing for selected molecules.
On a log10 scale: recorded MIC, unit nM.

CC(=O)/C(C)=C/CC/C(C)=C/Cc1c(O)c(Cl)c(C)c(C=O)c1O	1.11
CC(C)=CCC/C=C/Cc1c(O)c(Cl)c(C)c(C=O)c1O	1.15
Cc1c(Cl)c(O)c(/C=C/CCCCCC2CC(=O)C(C)(C)O2)c(O)c1C=O (centres unmarked)	1.87
Cc1c(Cl)c(O)c(CCCCCCCCCC(=O)OC(C)C)c(O)c1C=O	0.23
CCCCC/C(C)=C/COc1cc(O)c(C(C)=O)c(C)c1Cl	3.96
Cc1c(Cl)c(O)c(/C=C/CCCCCOC(=O)C(C)(C)C)c(O)c1C=O	1.34
COC(=O)CCCCCCCCCc1c(O)c(Cl)c(C)c(C=O)c1O	1.58

Continue with the molecule presented below.
Give the measured log10 MIC of CCCCC/C(C)=C\Cc1c(O)c(Cl)c(C)c(C=O)c1O . -0.60

====

Test system: T. b. rhodesiense IL1501
Assay: Antiprotozoal effect, MIC measurement in HMI-9 culture
Assay type: cell-based
Conditions: Trypanosoma brucei, RHODESIENSE, 24 h; Glycerol (−); bloodstream forms, 18 + 6 hours culture
recorded.metric: MIC (nM)
Numbers only; they are read as nM.

Consider the following illustrative entries.
CCCCCC(C)CCc1c(O)c(Cl)c(C)c(C=O)c1O (centres unmarked)	0.46
COC(=O)/C(C)=C/CC/C(C)=C/Cc1c(O)c(Cl)c(C)c(C=O)c1O	8.7
COC(CC(=O)C(C)(C)C)/C(C)=C/CC/C(C)=C/Cc1c(O)c(Cl)c(C)c(C=O)c1O (centres unmarked)	0.056
CCOC(=O)CCCCCCCCCc1c(O)c(Cl)c(C)c(C=O)c1O	24
CCOC(=O)CCCCCCCc1c(O)c(Cl)c(C)c(C=O)c1O	48

Give the measured MIC of CC(=O)OC(C)/C(C)=C/CC/C(C)=C/Cc1c(O)c(Cl)c(C)c(C=O)c1O (centres unmarked) . 2.3

Give the measured MIC of CCCCCC(C)=CCc1c(O)c(Cl)c(C)c(C(C)=O)c1O (mixture of isomers) . 14.7

Give the measured MIC of C/C(=C\Cc1c(O)c(Cl)c(C)c(C=O)c1O)CC/C=C(\C)C(C)O (centres unmarked) . 74
